experiment: Intracellular unbound drug accumulation ratio (Kpuu) in suspended HH; type: in vitro ADME; conditions: human, human hepatocytes, pH partitioning theory, read-out: calculated cytosolic Kpuu (or Fcyto)
measured parameter: Kp uu
Note: the reply should be a number with no unit written.

Prompt: Check the records and state Kp uu for `CC[C@H]1OC(=O)[C@H](C)[C@@H](O[C@H]2C[C@@](C)(OC)[C@@H](O)[C@H](C)O2)[C@H](C)[C@@H](O[C@@H]2O[C@H](C)C[C@H](N(C)C)[C@H]2O)[C@](C)(OC)C[C@@H](C)C(=O)[C@H](C)[C@@H](O)[C@]1(C)O`
Completion: 1.3

====

assay: pKa of RO compounds; format: physicochemical; conditions: method not stated
measured parameter: pKa
Note: the reply should be a number with no unit written.

Prompt: Check the records and state pKa for COCc1oc(S(=O)(=O)NC(=O)Nc2nc(C)c(Br)s2)cc1C [RO04]
Completion: 2.8

Prompt: Check the records and state pKa for O=C(Nc1ncc(Br)s1)NS(=O)(=O)c1cc2cccc(Cl)c2s1 [RO05]
Completion: 2.76

Prompt: Check the records and state pKa for Cc1cccc2cc(S(=O)(=O)NC(=O)Nc3ncc(Br)s3)sc12 [RO02]
Completion: 3.14

Prompt: Check the records and state pKa for Cc1cccc(S(=O)(=O)NC(=O)Nc2snc(C)c2Br)c1 [RO08]
Completion: 2.66

Prompt: Check the records and state pKa for COc1cc(C)c(-c2sc(S(=O)(=O)NC(=O)Nc3ncc(Br)s3)cc2C)cn1 [RO07]
Completion: 3.17

Continuing:
Prompt: Check the records and state pKa for COCc1oc(S(=O)(=O)NC(=O)Nc2ncc(Br)s2)cc1C [RO03]
Completion: 2.91

Prompt: Check the records and state pKa for Cn1c(S(=O)(=O)NC(=O)Nc2ncc(Br)s2)cc2ccccc21 [RO06]
Completion: 2.8
